All values here come from paper PMC10974290.

Below, each entry is listed alongside its reported emax (molar absorption coefficient).
experimental.protocol: UV-visible absorbance spectroscopy
Assay type: physicochemical
settings: PBS 1x (pH = 7.4), 0.1 mM; 7-MC + DTT 10 mM

Example compounds with recorded emax (molar absorption coefficient):
Cc1cc(=O)oc2cc(S)ccc12 [Compound 7-MC, 7-mercapto-4-methylcoumarin, reference compound]; 28929,88854 cm-1 M-1
Cc1cc(=O)oc2cc(S[C@@H]3OC[C@@H](O)[C@H](O)[C@H]3O)ccc12; 26044,28033 cm-1 M-1
Cc1cc(=O)oc2cc(S[C@H]3O[C@H](CO)[C@H](O)[C@H](O)[C@H]3O)ccc12; 19811,80752 cm-1 M-1
Cc1cc(=O)oc2cc(S[C@@H]3O[C@H](CO)[C@H](O)[C@H](O)[C@H]3O)ccc12; 18357,93367 cm-1 M-1
Cc1cc(=O)oc2cc(S[C@@H]3O[C@H](C(=O)O)[C@@H](O)[C@H](O)[C@H]3O)ccc12; 23328,41338 cm-1 M-1

The compound identified as Cc1cc(=O)oc2cc(S[C@@H]3O[C@H](CO)[C@@H](O)[C@H](O)[C@H]3O)ccc12 registered its emax (molar absorption coefficient) at 20778,59706 cm-1 M-1

The reported value for Cc1cc(=O)oc2cc(O)ccc12 [Compound 4-MUB, 4-methylumbelliferone, reference compound] in terms of emax (molar absorption coefficient) is 20129,15057 cm-1 M-1
